Let's look at some compounds and their measured SGF.
- experimental-protocol: Stability in Simulated Gastric Fluid (SGF)
- Format: in vitro ADME
- Set-up: key: % parent compound remaining relative to 0-minute sample
- details: % remaining at 1 h; SGF with pepsin pH 1.2, 2 μg/mL, 37° C.
quantity-kind: SGF (%)

1) COC(=O)[C@H](CCCCNC(=O)OC(C)(C)C)NC(=O)n1ccc2c1c(=O)[nH]c(=S)n2CCOC(C)C = 96
2) CC(C)OCCn1c(=S)[nH]c(=O)c2c1ccn2C(=O)NC(C)(C)C = 98
3) CC(C)OCCn1c(=S)[nH]c(=O)c2c1ccn2COC(=O)N[C@H](C(=O)OC(C)(C)C)C(C)C = 93
4) COCCOCCOC(=O)OCn1c(=O)c2c(ccn2COC(=O)OCCOCCOC)n(CCOC(C)C)c1=S = 100
5) CC(C)OCCn1c(SC(C)OC(=O)N(C)c2ncccc2COC(=O)CN(C)C(=O)OC(C)(C)C)nc(=O)c2[nH]ccc21 (stereo not drawn) = 89
6) CC(C)OCCn1c(=S)[nH]c(=O)c2c1ccn2COC(=O)c1ccccc1 = 99
7) CC(C)OCCn1c(=S)[nH]c(=O)c2c1ccn2S(=O)(=O)c1ccccc1F = 92
8) CC(C)OCCn1c(=S)n2c(=O)c3c1ccn3COC(=O)C(C)(C)CCCCC(C)(C)C(=O)OC2 = 94

====

- experimental-protocol: Caco-2 Permeability Assay
- Format: in vitro ADME, human
- details: human, Caco-2, pH 7.4, Caco-2 monolayer
quantity-kind: Papp at 90 min, 10 µM

1. CC(C)OCCn1c(=S)[nH]c(=O)c2c1ccn2COC(=O)Oc1ccc(F)cc1 = < 0.369 ×10⁻⁶ cm/s
2. CC(C)OCCn1c(=S)[nH]c(=O)c2c1ccn2COC(=O)CCNC(=O)[C@@H]1CCC(=O)N1C.O=C(O)C(F)(F)F = < 0.19 ×10⁻⁶ cm/s
3. CC(C)C[C@H](N)C(=O)OCCC(=O)OCn1ccc2c1c(=O)[nH]c(=S)n2CCOC(C)C.O=C(O)C(F)(F)F = < 0.108 ×10⁻⁶ cm/s

====

- experimental-protocol: Plasma Stability
- Type: in vitro ADME, human
- details: % remaining at 1 h in human plasma
Classes are defined on human Plasma stability with ranges lo = under 10 % remaining, mid = from 10 % remaining up to 70 % remaining, hi = 70 % remaining and over

1) CC(C)OCCn1c(=S)[nH]c(=O)c2c1ccn2COC(=O)CCNC(=O)[C@H](Cc1c[nH]c2ccccc12)NC(=O)OC(C)(C)C.O=C(O)C(F)(F)F = hi
2) CSCC[C@H](NC(=O)OC(C)(C)C)C(=O)NCCCCC(=O)OCn1ccc2c1c(=O)[nH]c(=S)n2CCOC(C)C = mid
3) CSCC[C@H](NC(=O)OC(C)(C)C)C(=O)NCCC(=O)OCn1ccc2c1c(=O)[nH]c(=S)n2CCOC(C)C = hi
4) CC(C)OCCn1c(=S)[nH]c(=O)c2c1ccn2COC(=O)CCCCNC(=O)[C@H](Cc1c[nH]c2ccccc12)NC(=O)OC(C)(C)C.O=C(O)C(F)(F)F = hi
5) CC(C)OCCn1c(=S)[nH]c(=O)c2c1ccn2COC(=O)CCCCNC(=O)[C@H](Cc1ccc(O)cc1)NC(=O)OC(C)(C)C.O=C(O)C(F)(F)F = mid
6) CCOC(=O)N1CCCC1C(=O)NCCCCC(=O)OCn1ccc2c1c(=O)[nH]c(=S)n2CCOC(C)C.O=C(O)C(F)(F)F (stereo not drawn) = mid
7) CC(C)OCCn1c(=S)[nH]c(=O)c2c1ccn2COC(=O)CCCCNC(=O)CN(C)C(=O)CNC(=O)OC(C)(C)C.O=C(O)C(F)(F)F = lo
8) CC(C)OCCn1c(=S)[nH]c(=O)c2c1ccn2COC(=O)CCCCNC(=O)[C@H](CCc1ccccc1)NC(=O)OC(C)(C)C.O=C(O)C(F)(F)F = mid
9) CC(C)OCCn1c(=S)[nH]c(=O)c2c1ccn2COC(=O)[C@H]1CCN(C(=O)OC(C)(C)C)C1 = lo
10) CC(C)OCCn1c(=S)[nH]c(=O)c2c1ccn2COC(=O)CCNC(=O)[C@@H](N)Cc1ccc(O)cc1.O=C(O)C(F)(F)F = mid
11) CNCC(=O)NCCC(=O)OCn1ccc2c1c(=O)[nH]c(=S)n2CCOC(C)C.O=C(O)C(F)(F)F = lo
12) CC[C@H](C)[C@H](N)C(=O)NCCC(=O)OCn1ccc2c1c(=O)[nH]c(=S)n2CCOC(C)C.O=C(O)C(F)(F)F = mid
13) CSCC[C@H](NC(=O)OCC1c2ccccc2-c2ccccc21)C(=O)NCCC(=O)OCn1ccc2c1c(=O)[nH]c(=S)n2CCOC(C)C.O=C(O)C(F)(F)F = hi
14) CC(C)OCCn1c(=S)[nH]c(=O)c2c1ccn2COC(=O)CCNC(=O)[C@@H](NC(=O)OC(C)(C)C)[C@@H](C)O.O=C(O)C(F)(F)F = hi
15) CC(C)OCCn1c(=S)[nH]c(=O)c2c1ccn2COC(=O)CCC(=O)OC(C)(C)C = lo
16) CC(C)OCCn1c(=S)[nH]c(=O)c2c1ccn2COC(=O)CCCCNC(=O)CN(C)C(=O)CN.O=C(O)C(F)(F)F = mid
17) CC(C)OCCn1c(=S)[nH]c(=O)c2c1ccn2COC(=O)[C@@H]1CCN(C(=O)OC(C)(C)C)C1 = lo
18) CC[C@H](C)[C@H](NC(=O)OC(C)(C)C)C(=O)NCCCCC(=O)OCn1ccc2c1c(=O)[nH]c(=S)n2CCOC(C)C = mid

Data origin: patent US20240067651A1
